Measurement Description: KARI assay of purified S. exigua KARI and variants with NADH (Examples 6-9)
Assay type: biochemical
Reported Conditions: read-out: Km for cofactor NADH
Observable: Km

Q: Tell us which Km value is on record for Se1_KARI^13G6: S. exigua KARI variant G60V, I95A (protein, UniProt D0WGK0 1-342, looked up, variant G60V I95A) Ketol-acid reductoisomerase …: MSVKTKEKEMAVTILYEQDVDPKVIQGLKVGIIGYGSQGHAHALNLMDSGVDVRVGLREVSSSWKTAEEAGLKVTDMDTAAEEADVIMVLVPDEAQPKVYQEHIAAHLKAGNTLAFAHGFNIHYGYIVPPEDVNVIMCAPKGPGHIVRRQFTEGSGVPDLACVQQDATGNAWDIVLSYCWGVGGARSGIIKATFAEETEEDLFGEQAVLCGGLVELVKAGFETLTEAGYPPELAYFECYHEMKMIVDLMYESGIHFMNYSISNTAEYGEYYAGPKVINEQSREAMKEILKRIQDGSFAQEFVDDCNNGHKRLLEQREAINTHPIETTGAQIRSMFSWIKKED
Ans: 34 µM
